- test.protocol: Half life in Balb-c nu/nu mouse blood at 30 mg/kg, po measured up to 7 hrs by UPLC/MS/MS spectrometry analysis
- Type: ADME, organism-based
measurement.kind: half-life

>>> print(df.to_string())
                                   compound  test_result
0  C[C@H](NC(=O)CCc1nc2cccnc2n1Cc1ccc(OC(F)(F)F)cc1)c1ccc(Cl)cc1 [CAMBRITAXESTAT]       54 min

---

Reported CLH by item:
- test.protocol: Intrinsic clearance in CD1 mouse liver microsomes assessed per gram of liver at 1 uM in presence of NADPH regenerating system measured up to 45 mins by UPLC/MS/MS analysis
- Assay type: ADME
- test.conditions: 0.75 h
measurement.kind: CLH

>>> df
                            chemical_smiles  measurement_kind    test_result
0  COc1ccc(Cn2c(CCC(=O)N[C@@H](C)c3ccccc3)nc3cccnc32)cc1               CLH    35 mL/min/g
1  C[C@H](NC(=O)OCc1nc2cccnc2n1Cc1ccc(F)cc1)c1ccc(F)cc1               CLH  21.8 mL/min/g
2  C[C@H](NC(=O)COc1nc2cccnc2n1Cc1ccc(F)cc1)c1ccc(F)cc1               CLH  15.6 mL/min/g
3  O=C(CCc1nc2cccnc2n1Cc1ccc(F)cc1)N[C@@H](CO)c1ccc(Cl)cc1               CLH   4.4 mL/min/g
4  O=C(CCc1nc2cccnc2n1Cc1ccccc1)NCc1ccc(Cl)cc1               CLH  15.3 mL/min/g
